The reported measurements were obtained from patent US20150166523A1.

system: orexin-2 receptor (hOX2R) (Homo sapiens, UniProt O43614)
Construct: expressed in transfected cells; host or cells: Chinese hamster ovary (CHO) cells
Sequence (O43614 1-444): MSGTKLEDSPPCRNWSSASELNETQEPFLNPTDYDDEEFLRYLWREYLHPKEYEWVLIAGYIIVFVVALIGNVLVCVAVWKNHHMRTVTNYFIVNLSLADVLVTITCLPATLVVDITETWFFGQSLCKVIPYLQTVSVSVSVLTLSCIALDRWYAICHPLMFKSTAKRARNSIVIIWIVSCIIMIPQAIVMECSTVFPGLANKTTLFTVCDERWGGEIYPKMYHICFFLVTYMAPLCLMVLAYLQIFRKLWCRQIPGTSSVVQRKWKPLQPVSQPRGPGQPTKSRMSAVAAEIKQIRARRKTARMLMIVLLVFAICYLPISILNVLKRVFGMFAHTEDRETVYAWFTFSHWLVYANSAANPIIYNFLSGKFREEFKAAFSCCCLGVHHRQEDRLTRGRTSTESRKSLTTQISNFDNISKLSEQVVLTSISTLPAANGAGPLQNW
experimentNotes: Measurement of orexin antagonistic activity (intracellular Ca2+ fluorescence, FDSS) on hOX2R
Type: cell-based
appliedConditions: CHO cells forcibly expressing hOX2R; Fluo-4AM; ligand peptide (substituted human orexin-A) 3 nM; compound preincubated 30 minutes; read-out: IC50 Value OX2
Method: The antagonistic activities of the test compounds on human orexin-1 receptor (hOX1R) and orexin-2 receptor (hOX2R) were measured by modifying from the method described in literature (Toshikatsu Okumura et al., Biochemical and Biophysical Research Communications, 280, 976-981, 2001). […]
experimentalEndpoint: IC50 (nM)
One number for each entry, in nM.

Known IC50 results, listed for orientation:
compoundStructureString | system | IC50 [nM]
Cc1ccc(-n2nccn2)c(C(=O)N(C)[C@@H](C)Cn2cc(-c3ccc(F)cc3)cn2)n1 | orexin-2 receptor (hOX2R) (Homo sapiens, UniProt O43614) | 89.3
CCN(C(=O)c1cc(F)ccc1-c1ncccn1)[C@@H](C)Cn1cc(-c2ccc(F)cn2)nn1 | orexin-2 receptor (hOX2R) (Homo sapiens, UniProt O43614) | 3150
C[C@@H](Cn1ccc(-c2ccc(F)cn2)n1)N(C)C(=O)c1ccccc1-c1ncccn1 | orexin-2 receptor (hOX2R) (Homo sapiens, UniProt O43614) | 67

// query IC50 value for entry CCN(C(=O)c1cc(F)ccc1-n1nccn1)[C@@H](C)Cn1cc(-c2ccc(F)cc2)nn1
51.4

---

system: human orexin-1 receptor (hOX1R) (Homo sapiens, UniProt O43613)
experimentNotes: Measurement of orexin antagonistic activity (intracellular Ca2+ fluorescence, FDSS) on hOX1R
appliedConditions: CHO cells forcibly expressing hOX1R; Fluo-4AM; ligand peptide (substituted human orexin-A) 300 pM; compound preincubated 30 minutes; read-out: IC50 Value OX1
Would you mind telling me the reported pIC50 of each entry?
Numbers only, as −log10 of the molar value.

Consider the following illustrative entries.
compoundStructureString | pIC50
CCN(C(=O)c1nc(C)ccc1-n1nccn1)[C@@H](C)Cc1noc(-c2ccc(F)cc2)n1 | 8.96
C[C@@H](Cn1cc(-c2ccc(F)cc2)cn1)N(C)C(=O)c1cc(F)ccc1-c1ncccn1 | 7.68
Cc1ccc(-n2nccn2)c(C(=O)N(C)[C@@H](C)Cn2ccc(-c3ccc(F)cn3)n2)c1 | 8.96
Cc1ccc(-n2nccn2)c(C(=O)N(C)[C@@H](C)Cn2cc(-c3ccc(F)c(F)c3)cn2)n1 | 8.00
CCN(C(=O)c1cc(C)ccc1-n1nccn1)[C@H](C)Cn1ccc(-c2ccc(F)cn2)n1 | 7.76
Cc1ccc(-n2nccn2)c(C(=O)N(CCC#N)[C@@H](C)Cn2cc(-c3ccc(F)cc3)nn2)c1 | 6.69
CCN(C(=O)c1nc(C)ccc1-n1nccn1)[C@@H](C)Cn1nnc(-c2ccc(F)cc2)n1 | 8.89
Cc1ccc(-n2nccn2)c(C(=O)N(CCO)[C@@H](C)Cn2cc(-c3ccc(F)cn3)cn2)c1 | 7.51
COCCN(C(=O)c1cc(C)ccc1-n1nccn1)[C@@H](C)Cn1nnc(-c2ccc(F)cc2)n1 | 8.66
CCN(C(=O)c1cc(C)ccc1-n1nccn1)[C@@H](C)Cn1cc(-c2ccc(OC)cc2)nn1 | 6.80

Provide reported pIC50 for each item, in the same order as listed.
1. CCN(C(=O)c1cc(C)ccc1-c1ncccn1)[C@@H](C)Cn1cc(-c2ccc(F)cn2)cn1
2. COCCN(C(=O)c1cc(C)ccc1-n1nccn1)[C@@H](C)Cn1ccc(-c2ccc(F)cn2)n1
3. CCN(C(=O)c1cc(Cl)ccc1-c1ncccn1)[C@@H](C)Cn1cc(-c2ccc(F)cn2)cn1
4. Cc1ccc(-n2nccn2)c(C(=O)N(CCN(C)C)[C@@H](C)Cn2cc(-c3ccc(F)cc3)nn2)c1
5. CCN(C(=O)c1cc(F)ccc1-c1ncccn1)[C@@H](C)Cn1cc(-c2ccc(F)c(F)c2)cn1

8.47
8.85
8.15
6.64
9.00

---

Exercise: for every item that follows, state its recorded pIC50.
system: orexin-2 receptor (hOX2R) (Homo sapiens)
experimentNotes: Measurement of orexin antagonistic activity (intracellular Ca2+ fluorescence, FDSS) on hOX2R
appliedConditions: CHO cells forcibly expressing hOX2R; Fluo-4AM; ligand peptide (substituted human orexin-A) 3 nM; compound preincubated 30 minutes; read-out: IC50 Value OX2
Answers are plain numbers, as −log10 of the molar value.

compoundStructureString | system | pIC50
CCN(C(=O)c1cc(C)ccc1-n1nccn1)[C@@H](C)Cn1cc(-c2ccc(O)cc2)nn1 | orexin-2 receptor (hOX2R) (Homo sapiens) | 6.11
Cc1ccc(-n2nccn2)c(C(=O)N(CCO)[C@@H](C)Cn2cc(-c3ccc(F)cn3)cn2)c1 | orexin-2 receptor (hOX2R) (Homo sapiens) | 7.06

Take each entry in turn and give its pIC50.
1. Cc1ccc(-n2nccn2)c(C(=O)N(C)[C@@H](C)Cn2cc(-c3ccc(F)c(F)c3)cn2)n1
2. CCN(C(=O)c1nc(C)ccc1-c1ncccn1)[C@@H](C)Cc1noc(-c2ccc(F)cc2)n1

1. 7.59
2. 6.43

For each of the compounds below, note its pIC50.
1. CCN(C(=O)c1nc(C)ccc1-n1nccn1)[C@@H](C)Cn1ccc(-c2ccc(F)c(F)c2)n1
2. CCN(C(=O)c1cc(C)ccc1-n1nccn1)[C@@H](C)Cn1cc(-c2ccc(F)cc2)nn1
3. CCN(C(=O)c1cc(C)ccc1-n1nccn1)[C@@H](C)Cn1cc(-c2cccc(C)c2)nn1
4. Cc1ccc(-n2nccn2)c(C(=O)N(C)[C@@H](C)Cc2noc(-c3ccc(F)cn3)n2)c1

8.01
7.66
7.67
7.12

---

system: human orexin-1 receptor (hOX1R) (Homo sapiens, UniProt O43613)
experimentNotes: Measurement of orexin antagonistic activity (intracellular Ca2+ fluorescence, FDSS) on hOX1R
appliedConditions: CHO cells forcibly expressing hOX1R; Fluo-4AM; ligand peptide (substituted human orexin-A) 300 pM; compound preincubated 30 minutes; read-out: IC50 Value OX1
Please provide measured IC50 for the entries that follow.
Numbers only, in nM.

Would you please look over these solved cases?
compoundStructureString | IC50 / nM
CCN(C(=O)c1cc(C)ccc1-c1ncccn1)[C@@H](C)Cc1noc(-c2ccc(F)cn2)n1 | 0.9
Cc1ccc(-n2nccn2)c(C(=O)N(C)[C@@H](C)Cc2noc(-c3ccc(F)cc3)n2)c1 | 0.5
CCN(C(=O)c1cc(C)ccc1-c1ncccn1)[C@@H](C)Cn1cc(-c2ccc(F)cn2)nn1 | 63.6

Turning now to a further record.
Provide the documented IC50 with human orexin-1 receptor (hOX1R) (Homo sapiens, UniProt O43613) as the system for CCN(C(=O)c1nc(C)ccc1-c1ncccn1)[C@@H](C)Cn1ccc(-c2ccc(F)cc2)n1
1.2

---

system: UniProt:O43613
Sequence (O43613 1-425): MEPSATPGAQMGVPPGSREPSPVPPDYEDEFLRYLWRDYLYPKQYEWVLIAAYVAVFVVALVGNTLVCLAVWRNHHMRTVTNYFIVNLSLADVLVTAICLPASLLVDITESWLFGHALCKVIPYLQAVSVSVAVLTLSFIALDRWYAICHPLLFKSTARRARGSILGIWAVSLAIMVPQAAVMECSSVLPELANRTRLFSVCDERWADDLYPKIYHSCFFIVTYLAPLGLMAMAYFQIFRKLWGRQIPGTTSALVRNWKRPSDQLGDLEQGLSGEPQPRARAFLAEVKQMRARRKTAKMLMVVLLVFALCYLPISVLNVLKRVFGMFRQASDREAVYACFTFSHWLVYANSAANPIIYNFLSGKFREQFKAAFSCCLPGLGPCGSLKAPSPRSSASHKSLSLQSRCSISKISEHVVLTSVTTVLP
experimentNotes: Measurement of orexin antagonistic activity (intracellular Ca2+ fluorescence, FDSS) on hOX1R
appliedConditions: CHO cells forcibly expressing hOX1R; Fluo-4AM; ligand peptide (substituted human orexin-A) 300 pM; compound preincubated 30 minutes; read-out: IC50 Value OX1
For each entry below, report its IC50 value.
One number for each entry, in nM.

In the examples that follow, each entry is paired with its recorded IC50.
compound | IC50 / nM
Cc1ccc(-c2ncccn2)c(C(=O)N(C)[C@@H](C)Cn2ccc(-c3ccc(F)cn3)n2)c1 [Example 6] | 1.2
CCN(C(=O)c1cc(C)ccc1-n1nccn1)C(C)Cc1cnn(-c2ccc(F)cn2)c1 (stereo not shown) [Example 74] | 1.3
CCN(C(=O)c1nc(C)ccc1-n1nccn1)[C@@H](C)Cn1cc(-c2ccc(F)cc2)cn1 [Example 26] | 1.7
C[C@@H](Cn1ccc(-c2ccc(F)cn2)n1)N(C)C(=O)c1ccccc1-c1ncccn1 [Example 4] | 1.7

// each listed compound needs a value for IC50
1. CCN(C(=O)c1cc(C)ccc1-c1ncccn1)[C@@H](C)Cn1nnc(-c2ccc(F)cc2)n1 [Example 68]
2. CCN(C(=O)c1c(F)cccc1-c1ncccn1)[C@@H](C)Cn1ccc(-c2ccc(F)cc2)n1 [Example 13]
3. CCN(C(=O)c1cc(C)ccc1-n1nccn1)[C@@H](C)Cn1cc(-c2cccc(O)c2)nn1 [Example 93]
4. Cc1ccc(-c2ncccn2)c(C(=O)N(C)[C@@H](C)Cc2noc(-c3ccc(F)cn3)n2)c1 [Example 46]
5. CCN(C(=O)c1nc(C)ccc1-c1ncccn1)[C@@H](C)Cn1cc(-c2ccc(F)cn2)nn1 [Example 80]

0.8
1.9
1.4
21.6
687

Items follow; give IC50 for each.
1. CCN(C(=O)c1cc(C)ccc1-n1nccn1)[C@@H](C)Cn1nnc(-c2ccc(F)cn2)n1 [Example 85]
2. CCN(C(=O)c1cc(F)ccc1-n1nccn1)[C@@H](C)Cn1nnc(-c2ccc(F)cn2)n1 [Example 87]
3. CCN(C(=O)c1cc(F)ccc1-n1nccn1)[C@@H](C)Cn1cc(-c2ccc(F)cn2)cn1 [Example 36]

1.3
9.8
6.8

Give measured IC50 for every item shown.
1. COCCN(C(=O)c1cc(C)ccc1-n1nccn1)[C@@H](C)Cn1cc(-c2ccc(F)cc2)nn1 [Example 72]
2. Cc1ccc(-n2nccn2)c(C(=O)N(CCO)[C@@H](C)Cn2cc(-c3ccc(F)cc3)nn2)c1 [Example 73]
3. CCN(C(=O)c1cc(C)ccc1-n1nccn1)[C@@H](C)Cn1cc(-c2ccccn2)nn1 [Example 94]
4. CCN(C(=O)c1cc(C)ccc1-n1nccn1)[C@@H](C)Cc1nnc(-c2ccc(F)cc2)o1 [Example 76]

[102, 80.3, 9.3, 1]
